# Test system: Micrococcus luteus
# experiment: Antibacterial activity against Micrococcus luteus ATCC 9341 after 18 hrs
# Assay type: functional
# particulars: ATCC 9341, 18 h
Can you tell me MIC for the items I'm about to list?

Example entries begin here.
// recorded MIC for C=Cc1c(C)c(O)cc2c1CC[C@H](C(=C)C)[C@@]2(C)CCC(=O)OC : 6.25 µg/mL

// recorded MIC for C=CC1=C(C)C(=O)C=C2[C@@]1(O)CC[C@H](C(=C)C)[C@@]2(C)CCC(=O)OC : > 50 µg/mL

New cases:
// recorded MIC for C=CC1=C(C)C(=O)C=C2[C@]1(O)CC[C@H](C(=C)C)[C@@]2(C)CCC(=O)OC : > 50 µg/mL
